Some molecules, each annotated with its measured GI50.
Test system: NCI-H522
Procedure Summary: NCI tumour cell line growth inhibition, 48 h
Calls of active or inactive are those of the source. Rule as the data show it: active = GI50 up to about 1.1 µM and inactive = higher.

INSERT INTO results (molecule, experimental_system, endpoint_value) VALUES
  ('CCN(CC)CCOc1ccc(CCc2cc(OC)c(OC)c(OC)c2)cc1', 'NCI-H522', '20 µM (inactive)'),
  ('N/N=C1\C(=O)N(C2CCCCCC2)C(=O)C1C(=O)NC1CCCCCC1 (centres undefined)', 'NCI-H522', '23.2 µM (inactive)'),
  ('Oc1cc2c(cc1O)-c1[nH]ncc1CC2', 'NCI-H522', '11.7 µM (inactive)'),
  ('CSC1=NN(c2ccccc2)C(=O)C1=C(SC)SC', 'NCI-H522', '2.44 µM (inactive)'),
  ('O=C(CC1(O)C(=O)Nc2ccccc21)c1cccc(O)c1 (centres undefined)', 'NCI-H522', '> 100 µM (inactive)'),
  ('CC(=O)O[C@H]1C[C@](C)(O)[C@@]23CC([C@@H](OC(=O)C(C)(C)O)[C@@H](OC(C)=O)C2(COC(=O)c2ccccc2)[C@H]1OC(C)=O)C(C)(C)O3 (some centres undefined)', 'NCI-H522', '67.1 µM (inactive)'),
  ('O=C(Nc1ccccc1[N+](=O)[O-])C(=O)C(C(=O)c1ccccc1-c1ccccc1)C1OC(=O)c2ccccc21 (centres undefined)', 'NCI-H522', '12.5 µM (inactive)'),
  ('CCC(C)c1c(Cl)nc(Cl)nc1Cl (centres undefined)', 'NCI-H522', '0.582 µM (active)'),
  ('CC12CC3(C)CC(C)(C1)CC(N=[N+]=[N-])(C2)C3', 'NCI-H522', '> 100 µM (inactive)'),
  ('O=C1c2ccccc2-[n+]2ccc3c([nH]c4ccccc43)c21 [FASCAPLYSIN CHLORIDE]', 'NCI-H522', '0.49 µM (active)');

Request: Give NCI-H522 GI50 for CCn1cc2c(=O)n3ncn(-c4ccc(Br)cc4)c3nc2n1
Result: > 100 µM (inactive)

---

System: HCT-15
Observation Type: GI50

INSERT INTO assay_data (compound, endpoint_value) VALUES
  ('Cc1nc2sccn2c1C(=O)OCCOCCOCCOCCOC(=O)c1c(C)nc2sccn12', '> 100 µM');

Request: Could you share which GI50 value was measured for O=C1C(c2ccc(C3=[N+]([O-])c4cc([N+](=O)[O-])ccc4C3=O)cc2)=[N+]([O-])c2cc([N+](=O)[O-])ccc21 ?
Result: > 10 µM

Request: Could you share which GI50 value was measured for O=C1c2cccc3cc([N+](=O)[O-])cc(c23)C(=O)N1CCNCCNCCNCCN1C(=O)c2cccc3cc([N+](=O)[O-])cc(c23)C1=O ?
Result: 0.01 µM

Request: Could you share which GI50 value was measured for O=c1onc2n1-c1cc(Cl)ccc1C(=S)N1CSCC21 (stereo not given) ?
Result: > 100 µM

Request: Could you share which GI50 value was measured for CC(Oc1ccc(OCC2CCCCC2)cc1)C(=O)O (stereo not given) ?
Result: > 100 µM

---

System: MOLT-4
Procedure Summary: NCI tumour cell line growth inhibition, 48 h
Activity calls are given as the source filed them. Cut-off read from the data, not from the text of the source: active = GI50 up to about 1.1 µM and inactive = higher.
Some compounds, each annotated with its measured GI50.

INSERT INTO measurements (compound, observation_type, endpoint_value) VALUES
  ('COc1cccc(C(=O)C(O)c2cccc(OC)c2OC)c1OC (centres undefined)', 'GI50', '> 100 µM (inactive)');

Request: Could you share which GI50 value was measured for O=C(Nc1ccccc1)c1cc(S(=O)(=O)N2CCNNC2=O)c(S)cc1Cl ?
Result: 71.6 µM (inactive)

Request: Could you share which GI50 value was measured for CC1(C)C2CC(c3ccncc3)ON2C(C)(C)N1O (centres undefined) ?
Result: > 100 µM (inactive)

Request: Could you share which GI50 value was measured for CC(C)CCCC(C)[C@H]1CC[C@H]2[C@@H]3CC[C@H]4C[C@@H](CCC=C(c5cc(Cl)c(O)c(C(=O)OC(C)(C)C)c5)c5cc(Cl)c(O)c(C(=O)OC(C)(C)C)c5)CC[C@]4(C)[C@H]3CC[C@]12C (some centres undefined) ?
Result: > 50 µM (inactive)

---

Some compounds, each annotated with its measured GI50.
System: RXF 393
Procedure Summary: NCI tumour cell line growth inhibition, 48 h
Calls of active or inactive are those of the source. No stated cut-off is given here; in the data, active = GI50 up to about 1.1 µM and inactive = higher.

# example entries with known answers
INSERT INTO measurements (compound, observation_type, endpoint_value) VALUES
  ('COc1cc2c(c(O)c1C)C(=O)C(Cl)=CC2=O', 'GI50', '6.31 µM (inactive)'),
  ('O=[N+]([O-])c1cc(Cl)cc2c1nc(NCCO)c1ccccc12', 'GI50', '6.46 µM (inactive)'),
  ('Cc1cc(N(CCC#N)CCC#N)ccc1/C=C(\NC(=O)/C=C/c1ccccc1)NC(=O)Nc1ccc(Cl)cc1', 'GI50', '15.7 µM (inactive)');

Request: Could you share which GI50 value was measured for Cc1cc(C)c2c(n1)S(=O)(=O)N(CCCN1CCN(c3cccc(C(F)(F)F)c3)CC1)C(C(=O)c1ccccc1)=C2O ?
Result: 5.73 µM (inactive)

Request: Could you share which GI50 value was measured for CCOC(=O)CNC(=O)C(CSCC1C(=O)Nc2ccccc21)NC(=O)CCC(N)C(=O)OCC (stereo not given) ?
Result: 1.19 µM (inactive)

Request: Could you share which GI50 value was measured for CC(C)(C)OC(=O)CN1CCNCCNCC1 ?
Result: > 100 µM (inactive)

---

Test system: SK-MEL-28
Procedure Summary: NCI tumour cell line growth inhibition, 48 h
Calls of active or inactive are those of the source. No stated cut-off is given here; in the data, active = GI50 up to about 1.1 µM and inactive = higher.
Some compounds, each annotated with its measured GI50.

# example entries with known answers
INSERT INTO measurements (compound, endpoint_value) VALUES
  ('COc1ccc2[nH]c3c(c2c1)CCn1c-3nc2ccccc2c1=O', '> 25 µM (inactive)'),
  ('Cc1cc(N(CCC#N)CCC#N)ccc1/C=C(\NC(=O)/C=C/c1ccccc1)NC(=O)Nc1ccc(Cl)cc1', '> 100 µM (inactive)'),
  ('CC(Oc1ccc(OCC2CCCCC2)cc1)C(=O)O (stereo not given)', '> 100 µM (inactive)'),
  ('CCC(C)c1c(Cl)nc(Cl)nc1Cl (stereo not given)', '7.18 µM (inactive)'),
  ('O=C1c2cc3ncsc3cc2C(=O)c2c(O)ccc(O)c21', '> 100 µM (inactive)');

Request: Could you share which GI50 value was measured for Cc1c(N2C(=O)CS(=O)(=O)C2c2cccc(Oc3ccccc3)c2)c(=O)n(-c2ccccc2)n1C (stereo not given) ?
Result: > 100 µM (inactive)

Request: Could you share which GI50 value was measured for O=c1[nH]c2ccccc2cc1C(Cl)=C(Cl)Cl ?
Result: > 100 µM (inactive)

Request: Could you share which GI50 value was measured for COc1cccc(C(=O)C(O)c2cccc(OC)c2OC)c1OC (stereo not given) ?
Result: > 100 µM (inactive)

Request: Could you share which GI50 value was measured for C/C=C\C(CC(=O)NCCc1cn(C(=O)OCc2ccccc2)c2ccccc12)CC(=O)OC (stereo not given) ?
Result: > 100 µM (inactive)

Request: Could you share which GI50 value was measured for CC(CO)CCC(O)C(C)(O)C1CCC2(O)C3=CC(=O)C4CC(O)C(O)CC4(C)C3CCC12C (stereo not given) ?
Result: > 100 µM (inactive)

---

Some molecules, each annotated with its measured GI50.
Tested on: OVCAR-5
Procedure Summary: NCI tumour cell line growth inhibition, 48 h
Activity calls are given as the source filed them. Rule as the data show it: active = GI50 up to about 1.1 µM and inactive = higher.

# example entries with known answers
INSERT INTO measurements (molecule, experimental_system, endpoint_value) VALUES
  ('CCOC(=O)C1(C/C=C\CBr)CCCC1=O (stereo not given)', 'OVCAR-5', '31.2 µM (inactive)'),
  ('CCOC(=O)[C@@H]1ON2O[C@@H](OC3CCCC3(c3ccccc3)c3ccccc3)C[C@H]3OC(=O)[C@@H]1C32 (stereo not given in full)', 'OVCAR-5', '20.9 µM (inactive)'),
  ('CC#CC(O)(C(=O)OC1CC2CCC(C1)N2C)C1CCCC1 (stereo not given)', 'OVCAR-5', '> 100 µM (inactive)');

Request: Could you share which GI50 value was measured for Cc1ccccc1-n1c(=O)c2ncn(C3CCCO3)c2n(-c2ccccc2C)c1=S (stereo not given) ?
Result: > 100 µM (inactive)

Request: Could you share which GI50 value was measured for CCCOc1ccc(/C=C\c2cc(OC)c(OC)c(OC)c2)cc1 ?
Result: 10.1 µM (inactive)

---

System: EKVX
Procedure Summary: NCI tumour cell line growth inhibition, 48 h
The source made the active and inactive calls. No stated cut-off is given here; in the data, active = GI50 up to about 1.1 µM and inactive = higher.
Observation Type: GI50

# example entries with known answers
INSERT INTO assay_data (compound, endpoint_value) VALUES
  ('N#C/C(=C1C=C(Br)/C(=N\O)C=C\1Cl)c1cccc2ccccc12', '10.8 µM (inactive)'),
  ('Cc1cc(N(CCC#N)CCC#N)ccc1/C=C(\NC(=O)/C=C/c1ccccc1)NC(=O)Nc1ccc(Cl)cc1', '47.9 µM (inactive)'),
  ('O=C(Nc1ccccc1[N+](=O)[O-])C(=O)C(C(=O)c1ccccc1-c1ccccc1)C1OC(=O)c2ccccc21 (centres undefined)', '20.2 µM (inactive)'),
  ('O=C(O)c1ccc(/N=C(\C(=N\c2ccc(C(=O)O)cc2)c2ccccc2)c2ccccc2)cc1', '> 100 µM (inactive)'),
  ('CCc1cccc(C)c1NC(=O)C(=O)Cc1nc2ccccc2s1', '> 100 µM (inactive)');

Request: Could you share which GI50 value was measured for CO[C@H]1O[C@@H]2CO[C@@H](c3ccccc3)O[C@H]2C[C@]12CCC/C=C\CO2 ?
Result: 11.6 µM (inactive)

Request: Could you share which GI50 value was measured for COc1ccc(OC)c(/C=N/N=C(\N)NO)c1 ?
Result: 13.3 µM (inactive)

Request: Could you share which GI50 value was measured for COc1c(O)c(O)c2c(c1O)C(=O)c1cc(C)cc(O)c1C2=O ?
Result: 22.4 µM (inactive)

Request: Could you share which GI50 value was measured for Cc1cccc(/N=N/c2ccc(/N=N/c3c(O)ccc4ccccc34)cc2C)c1 ?
Result: 84.7 µM (inactive)
